// data source = patent US8470810B2

target: human dopamine D3 receptors (Homo sapiens, UniProt P35462); construct: expressed in transfected cells; assay: Dopamine D3 receptor binding, displacement of [125I]-iodosulpride; details: selectivity ratio of the receptor binding constants D2 over D3
Sequence (P35462 whole entry): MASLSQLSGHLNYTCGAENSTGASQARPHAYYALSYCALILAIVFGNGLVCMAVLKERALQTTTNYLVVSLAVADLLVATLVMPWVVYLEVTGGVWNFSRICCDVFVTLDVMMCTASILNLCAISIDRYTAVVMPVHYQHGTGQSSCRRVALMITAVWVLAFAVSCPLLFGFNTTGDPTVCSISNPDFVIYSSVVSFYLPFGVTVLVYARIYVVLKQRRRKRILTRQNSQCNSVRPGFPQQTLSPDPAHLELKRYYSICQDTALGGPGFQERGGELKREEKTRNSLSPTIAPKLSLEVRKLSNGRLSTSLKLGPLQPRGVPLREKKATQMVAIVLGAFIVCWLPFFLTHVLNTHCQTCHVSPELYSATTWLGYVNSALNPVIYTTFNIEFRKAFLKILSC
Exercise: for every item that follows, state its recorded Ki(D2)*/Ki(D3)*.
Answer with the value's number alone.

Look at this compound and give its reported Ki(D2)*/Ki(D3)*. CCCN1CC[C@@H](c2ccc(NS(=O)(=O)c3ccc(-n4cccn4)cc3)cc2)C1 [Example 69]
36

Field entry: CCCN1CC[C@@H](c2ccc(NS(=O)(=O)c3ccc(C(F)(F)F)cc3)cc2)C1.Cl [Example 8]
57

Field entry: CCCN1CC[C@@H](c2ccc(NS(=O)(=O)c3ccc(C)cc3)cc2)C1.Cl [Example 10]
60

Field entry: C=Cc1ccc(S(=O)(=O)Nc2ccc([C@@H]3CCN(CCC)C3)cc2)cc1 [Example 123]
91

Field entry: CCCN1CC[C@@H](c2ccc(NS(=O)(=O)c3ccc(SC(F)(F)F)cc3)cc2)C1 [Example 68]
47

Field entry: CCCN1CC[C@@H](c2ccc(NS(=O)(=O)c3ccc(N4CCC(F)(F)C4)cc3)cc2)C1 [Example 127]
112

Field entry: CCCN1CC[C@@H](c2ccc(NS(=O)(=O)c3ccc(CC)cc3)cc2)C1.Cl [Example 6]
45

Field entry: CCCN1CC[C@@H](c2ccc(NS(=O)(=O)c3ccc(-c4ccno4)s3)cc2)C1 [Example 80]
29
